- System: Staphylococcus aureus
- EXPERIMENT: Antibacterial activity against methicillin-susceptible Staphylococcus aureus clinical isolate 267/08 after 18 hrs by twofold serial agar dilution technique
- Type: functional
- EXPERIMENTAL SETUP: clinical isolate 267/08, 18 h
Provide the reported MIC of each item.
Numbers only, in µg/mL.

As a guide, the following entries are already answered.
CHEM SMILES | MIC, µg/mL
S=C(Nc1nc[nH]n1)Nc1ccccc1Br | 50
Fc1cccc(NC(=S)Nc2nc[nH]n2)c1 | 25
S=C(Nc1ccc(I)cc1)Nc1nc[nH]n1 | 25
S=C(Nc1ccc(Cl)cc1)Nc1nc[nH]n1 | 25
S=C(Nc1ccc(Br)cc1)Nc1nc[nH]n1 | 25

For every listed record, write down its MIC.
1. S=C(Nc1ccccc1)Nc1nc[nH]n1
2. Fc1ccc(NC(=S)Nc2nc[nH]n2)cc1

[50, 50]

Reference for the values: ChEMBL document CHEMBL2062460
